- tested-system: MAT2A (Homo sapiens, UniProt P31153)
- Sequence (P31153 whole entry): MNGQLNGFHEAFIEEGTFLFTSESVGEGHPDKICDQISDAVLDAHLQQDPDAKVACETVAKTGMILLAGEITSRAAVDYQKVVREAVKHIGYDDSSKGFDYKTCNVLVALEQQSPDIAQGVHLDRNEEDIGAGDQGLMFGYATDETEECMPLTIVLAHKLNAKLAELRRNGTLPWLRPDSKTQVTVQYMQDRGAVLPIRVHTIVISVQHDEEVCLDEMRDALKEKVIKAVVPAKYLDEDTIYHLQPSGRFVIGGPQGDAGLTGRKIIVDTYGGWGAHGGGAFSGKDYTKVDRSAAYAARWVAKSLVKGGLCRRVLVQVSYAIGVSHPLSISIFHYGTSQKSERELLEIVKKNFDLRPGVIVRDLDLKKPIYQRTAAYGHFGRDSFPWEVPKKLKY
parameter-measured: IC50

Sample records with IC50:
>>> df
                            chemical_smiles  parameter_measured     test_result
0  CCOc1cc(C(F)(F)F)cc2c1n1ccnc1c(=O)n2-c1cccnc1C                IC50     1 to 100 nM
1   Cc1cccc(-n2c(=O)c3nccn3c3ccc(Cl)cc32)c1                IC50  100 to 1000 nM
2  Cc1ncccc1-n1c(=O)c2ncc(C)n2c2ccc(C(F)(F)F)cc21                IC50  100 to 1000 nM
3      O=c1c2nccn2c2ccc(Cl)cc2n1-c1ccccc1Cl                IC50     1 to 100 nM

Now take the following compound into account.
Value lookup for IC50; key = "Cc1ncccc1-n1c(=O)c2nc(CN3CCOCC3)cn2c2ccc(Cl)cc21" 100 to 1000 nM
